These entries and their values trace back to the supplement of paper PMC6555819.

tested on: PPARg DBDmut:RXRa IVT, anti-PPARg (DBD mutation: PPARg1 K132A/R137A, NR concentration 270 nM, RXRa partner concentration 90 nM); assay: PBM binding z-score (relative to random genomic background probes); higher = stronger binding; sequences stand for … in GC…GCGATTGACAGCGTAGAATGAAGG
Assign 1 to entries whose PBM binding z-score meets or exceeds 0.7; assign 0 to the rest.

>>> print(df.to_string())
                                  seq  class_name
0  CGAACTAGGCCATTGACAGGACAGTGAATAGTAA           1
1  CCTTACGGGTCACTGACAGGTTATAGTATTTGGA           1
2  TCTGGTAGATCAACAGGAGGTTAAGAAAGATCGA           0
3  TCTAGAAGGCCAGAGGGTCACTCAAGAGGTACGG           0
4  TCTAGCAGCCCAGAGGGTCACTCAAGAGGTACGG           0
5  TAGCCTAGGCCATTGGGCCAGTATAGTACGCATC           0
6  GCTGCTAGGTCTACTGATGGTCAGCTAAAGCTCG           0

----------
test system: PPARg DBDmut IVT, anti-PPARg (DBD mutation: PPARg1 K132A/R137A, NR concentration 270 nM); test: PBM binding z-score (relative to random genomic background probes); higher = stronger binding; sequences stand for … in GC…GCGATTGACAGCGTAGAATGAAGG
quantity measured: PBM binding z-score

>>> print(df.to_string())
                                  seq  assay_value
0  CAAACTAGGTCACCGGAAGGTCAAACTCCGCATG         4.65
1  TCTTATAGATCAACAGGAGGTTAAGAAAGATCGA        0.867
2  GCTGACAGGTGAAACGCAGGTAACTCAGGGTGGC        -1.24
3  GTACCAAGGTGAATAGGTCCTTGATGAGTAGGCG      -0.0495

----------
test system: LXRb:RXRa (NR concentration 270 nM, RXRa partner concentration 90 nM); assay: PBM binding z-score (relative to random genomic background probes); higher = stronger binding; sequences stand for … in GC…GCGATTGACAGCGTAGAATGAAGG
quantity measured: PBM binding z-score

>>> print(df.to_string())
                                   seq  assay_value
 0  CCGACTGGGGCATGAGGTTACCATAAGCCAGCCC        0.386
 1  CCTACTGTGCCAAAGGTCATTGATTCCAATGCTC         5.34
 2  TCTTGTGGATCAATAGAGGTTAAGAAAGTGCGCT         1.91
 3  CCATACAGGTGAAAGGTAACTCAGTCTGGTACGC         1.34
 4  ATCGAAAGGTCGACGAGGTGAGTATTCACCGTTT         2.63
 5  ATCGAAAGGTCGAGGCGAGTATAGAGAAAGGGAA         2.24
 6  AGTCAAAGTTCACTAGATAACGTAAGATTCAGCT         2.91
 7  AGTCAAAGTTCCCTAGGTAACGTAAGATTCAGCT         -0.4
 8  GCTGCTAGGTCAGGTTGGTCACCTAACGGGTACG         0.43
 9  CTGACTGGGGCATAAGGTTACCATAAGCCAGCCC         1.61
10  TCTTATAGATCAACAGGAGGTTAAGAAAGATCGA         1.36
11  TCTTGTAGATCAACAGGAGGTTAAGAACGATCGA        0.748
12  GCAATTAGTTGAAAGGGCAACCGAATGATTCTCG        0.496
13  CCAACTAGGTCAAGGACAGTGAATCTCCGCACGC         1.47
14  CGAACTAGGTCATTGACACGACAGTGAATAGTAA         2.48
15  TCGAGCAGGCCAGAGGGTCACTCAAGAGGTACGG         1.11
16  GGAACGAGGGCAAGTTGATAGTAGAGTTTGATGG        0.413
17  GCTTGTAGATCAAGGTTAAGAAGGACTAAGCTAA        0.546
18  CGTCCAAGGTCAATGTCAGTGAAAGAGACTCGAA         3.88
19  TCGAGCAGGTTACCAATGGGGCATTCAGCTTTCT        0.999
20  TCGGCTAGGTCAACGATGGTCAGCTAATCTGCTA         1.72
21  CGTCAAATTTCAAGGTAACGTAACAGAAAGCAGC        0.163
22  CGGCCAAGGTCAGCAGGTCAGTGAAAGCGACGTG          2.9
23  TCTTGTAGATCATCAGGTTAAGAAAGCTGGCCAA        0.642
24  AGAGTGAGGTTAAGATCAGGGAAACAGAATACAT         2.44
25  CCTCGGAGGACAACAGGAGGTCAGAGATGCCAGA         1.36
26  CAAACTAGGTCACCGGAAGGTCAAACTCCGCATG         5.67
27  CAAACTAGGTCATGGTCAAAGTCGGTTTGTGCCA         1.94
28  ACAGACAGGTGATGAAGGTAACTGAGGCTATCAT       -0.234
